TARGET_UNDER_TEST: human Claudin18.2 (human)
MEASUREMENT_PROTOCOL: cell-based or functional assay
VALUE_KIND: CDC EC50 (µg/mL)
# number only, unit µg/mL dropped from output

411G3E10 (antibody, V domains shown) VH: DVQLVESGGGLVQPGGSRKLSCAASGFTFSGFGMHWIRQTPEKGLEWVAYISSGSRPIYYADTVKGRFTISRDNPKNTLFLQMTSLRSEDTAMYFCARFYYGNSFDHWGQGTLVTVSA VL: DIVMTQSPSFLTVTAGEKVTMNCRSSQSLLNSGNQKNYLTWYQQKPGQPPKLLIYWASTRESGVPDRFTGSGSGTDFTLTISSVQAEDLALYYCQNAYSFPLTFGAGTKLELK = 3.31
234E1F12 (antibody, V domains shown) VH: QAYLQQSGAELVRSGASVKMSCKASGYTFTSHNMHWVKQTPRQGLEWIGYIYPGNGDTNYNQKFKGKATLTADTSSSTAYMQISSLTSEDSAVYFCTRDYYGNSFAYWGQGTLVTVSA VL: DIVMTQSPSSLTEKAGERVSMSCKSSQSLFNSGNQKNYLTWYQQKPGQPPKLLIYWASTRESGVPDRFTGSGSGTDFTLTISSVQAEDLAVYYCQNAYWYPFTFGAGTKLELK = 1.1
257G7B9 (antibody, V domains shown) VH: QAYLQQSGAELVRSGASVKMSCKASGYTFTSHNLHWVKQTPGQGLEWIGYIYPGNGNTNYNQKFKGKATLTADTSSSTAYMQISSLTSEDSAVYFCTRDYYGNSFAYWGQGTLVTVSA VL: DIVMTQSPSSLTEKAGERVSMSCKSSQSLFNSGNQKNYLTWYQQKPGQPPKLLIYWASTRESGVPDRFTGSGSGTDFTLTISSVQAEDLAVYYCQNNYWFPFTFGAGTKLELK = 1.01
393C2C5 (antibody, V domains shown) VH: DVQLVESGGGLVQPGGSRKLSCAASGFTFSSFGMHWVRQAPEKGLEWVAYISSGSSPIYYADTVKGRFTISRDNPKNTLFLQMTSLRSEDTAMYFCATFYYGNSFAYWGQGTLVTVSA VL: DIVMTQSPSSLTVTAGEKVTMSCKSSQTLLNSGNQKNYLTWYQQKSGQPPKLLIYWASTRESGVPDRFTGSGSGTDFTLTISSVQAEDLAVYYCQNAYSYPVTFGSGTKVELK = 0.909

Attention now shifts to the item below.
What value of CDC EC50 has been recorded for this entry: 412B6E4 (antibody, V domains shown) VH: DVQLVESGGGLVQPGGSRKLSCAASGFTFSSFGVHWVRQAPEKGLEWVAYISSGSSTIYYAHSVKGRFTISRDNPKNTLFLQMTSLGSEDTATYYCARFYYGNSFAYWGQGTLVTVSA VL: DIVMTQSPSSLTVTAGEKVTMSCKSSQSLLNSGNQKNYLTWYQQKPGQPPKMLIYWASTRESGVPDRFTGSGSGTDFTLTISSVQAEDLAVYYCQNAYTYPLTFGAGTRLELK 0.472
